Source: patent US7517998B2

- system.name: K103NNY181C mutant reverse transcriptase (Human immunodeficiency virus type 1 group M subtype B, UniProt P04585, K690N/Y768C)
- Construct: mutations that occur in the reverse transcriptase segment of the pol gene
- assay.summary: Reverse transcriptase enzymatic assay (PicoGreen), K103N/Y181C mutant RT
- Assay type: biochemical, HIV-1
- condition.details: IC50 mut, K103N/Y181C mutant reverse transcriptase, enzymatic assay of Example 24
- Method: The enzymatic assay employed is described as follows: The reverse transcriptase (RT) enzyme assay has been adapted to a 96-well microtiter plate format and uses PicoGreen™ as a fluorescent intercalator. […] The plate was then analyzed using a POLARstar Galaxy fluorometer (BMG Labtechnologies) with λex and λem of 485 nm and 520 nm respectively. Each well was read for 1.25 second. […]
Quick reference for IC50 among some compounds
// note: answer is a bare numeric in nM

Known results for compounds:
INSERT INTO measurements (compound, units_of_measure, recorded_measurement) VALUES
  ('CC(C)(N)C#Cc1ccc(NC(=O)CSc2nnnn2-c2cc(C(F)(F)F)ccc2Cl)c(Cl)c1 [Compound 4137]', 'nM', 88),
  ('O=C(CSc1nnnn1-c1ccc(C2CC2)cc1Cl)Nc1ccc(C#CC2(CN3CCC(O)CC3)CC2)cc1Cl [Compound 4096]', 'nM', 37),
  ('CC(C)(C#Cc1ccc(NC(=O)CSc2nnnn2-c2ccc(C(C)(C)C)cc2Cl)c(Cl)c1)OCC(=O)N1CCOCC1 [Compound 4039]', 'nM', 40),
  ('CC(C)(O)C#Cc1ccc(NC(=O)CSc2nnnn2-c2cc(C(C)(C)C)ccc2Cl)c(Cl)c1 [Compound 4199]', 'nM', 32),
  ('Cc1c(NC(=O)CSc2nnnn2-c2ccc(C3CC3)cc2Cl)ccc(C#CC(C)(C)NC(=O)c2cc[n+]([O-])cc2)c1F [Compound 4178]', 'nM', 26),
  ('CC(C)(C#Cc1ccc(NC(=O)CSc2nnnn2-c2ccc(C3CC3)cc2Cl)c(Cl)c1F)C(=O)O [Compound 4100]', 'nM', 18);

Here is the next item to consider.
Task: Fill in reported IC50 for this entry: CC(C)(C#Cc1ccc(NC(=O)CSc2nnnn2-c2ccc(CC3CC3)cc2Cl)c(Cl)c1)C(=O)O [Compound 4240]
Result: 175

====

- system.name: K103NNY181C mutant reverse transcriptase (Human immunodeficiency virus type 1 group M subtype B, UniProt P04585, K690N/Y768C)
- Construct: mutations that occur in the reverse transcriptase segment of the pol gene
- assay.summary: Reverse transcriptase enzymatic assay (PicoGreen), K103N/Y181C mutant RT
- Format: biochemical, HIV-1
- condition.details: IC50 mut, mutant reverse transcriptase, enzymatic assay of Example 24
Please use Condition met for IC50 under 70 nM and Condition not met for everything else, ties included.

Here's what some known entries look like.
INSERT INTO results (compound, label_class) VALUES
  ('O=C(CSc1nnnn1-c1ccc(C2CC2)cc1Cl)Nc1ccc(C(=O)NCc2ccc[n+]([O-])c2)cc1Cl', 'Condition not met'),
  ('COC(=O)c1ccc(-c2ccc(NC(=O)CSc3nnnn3-c3ccc(C(C)(C)C)cc3Cl)c(Cl)c2)cc1', 'Condition met'),
  ('CC(C)(C)c1ccc(-n2nnnc2SCC(=O)Nc2ccc(C(=O)NCCc3ccc(O)cc3)cc2Cl)c(Cl)c1', 'Condition met');

Task: Lab note: confirm whether the reported IC50 for this compound is below 70 nM, equality not counting. compound: `CC(C)(C)c1ccc(-n2nnnc2SCC(=O)Nc2ccc(OCC(=O)NC3CCN(Cc4ccccc4)CC3)cc2Cl)c(Cl)c1`
Result: Condition not met
